Reported self-splicing fitness (ln) is given for each of the following sequences.
- experimental protocol: self-splicing fitness, log relative to wild type (ln ratio); higher = more splicing; Tetrahymena group I intron in knt gene, E. coli kanamycin selection, DiMSum; sequences stand for … in CUCUCU…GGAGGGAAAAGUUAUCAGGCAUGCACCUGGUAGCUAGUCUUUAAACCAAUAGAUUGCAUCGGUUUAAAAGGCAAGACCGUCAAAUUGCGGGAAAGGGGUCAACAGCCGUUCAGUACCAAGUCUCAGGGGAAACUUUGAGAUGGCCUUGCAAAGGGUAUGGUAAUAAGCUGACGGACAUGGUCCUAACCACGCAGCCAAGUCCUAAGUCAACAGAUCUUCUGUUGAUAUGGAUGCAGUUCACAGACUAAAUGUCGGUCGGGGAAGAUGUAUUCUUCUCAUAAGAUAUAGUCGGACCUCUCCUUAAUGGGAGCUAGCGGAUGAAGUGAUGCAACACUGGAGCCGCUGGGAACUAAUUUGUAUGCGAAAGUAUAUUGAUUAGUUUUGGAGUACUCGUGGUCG;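 note: selection with 25 µg/mL kanamycin versus none on LB agar overnight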
- measurement context: 37 °C

What measured self-splicing fitness (ln) goes with "CAAGAGCAAUAUUACGGUGC" ?
-2.09

Moving on to "GAUAAGCAAUAUUACGCAUG"
-0.777

Moving on to "UGCCAGCAAUAUUACGUAUC"
-3.05

Moving on to "CUUAAGCAAUAUUACGCCGU"
-1.88

Moving on to "GCGGAGCAAUAUUACGCGGG"
-1.2

Moving on to "GGGAAGCAAUAUUACGCGGU"
-1.4

---
What measured self-splicing fitness (ln) goes with "GUACAGCAAUAUUACGAAAA" ?
-2.31

Moving on to "AGAUAGCAAUAUUACGACAG"
-0.465

Moving on to "GUAUAGCAAUAUUACGGUUU"
-1.29

Moving on to "UCCGAGCAAUAUUACGUGUU"
-2.36

Moving on to "UCACAGCAAUAUUACGCUCC"
-1.51

Moving on to "CCCUAGCAAUAUUACGCGGC"
-2.36

Moving on to "CCAUAGCAAUAUUACGCAGC"
-3.34

Moving on to "AAAAAGCAAUAUUACGUGUG"
-1.27

Moving on to "GCGAAGCAAUAUUACGUCAU"
-1.65

Moving on to "UUAUAGCAAUAUUACGAGCA"
-1.49

Moving on to "CCCAAGCAAUAUUACGUCGC"
-2.38

Moving on to "UUCAAGCAAUAUUACGUGUU"
-1.72

Moving on to "UGUUAGCAAUAUUACGGCGU"
-0.892

Moving on to "AUAGAGCAAUAUUACGAUCC"
-2.18

Moving on to "CUCUAGCAAUAUUACGGUCC"
-2.53

Moving on to "UAGGAGCAAUAUUACGACCG"
-0.0128

Moving on to "GUUCAGCAAUAUUACGUUGU"
-0.287

Moving on to "CUCAAGCAAUAUUACGGGGU"
-3.44

Moving on to "UAACAGCAAUAUUACGAUAG"
-0.506

====

- experimental protocol: self-splicing fitness, log relative to wild type (ln ratio); higher = more splicing; Tetrahymena group I intron in knt gene, E. coli kanamycin selection, DiMSum; sequences stand for … in CUCUCU…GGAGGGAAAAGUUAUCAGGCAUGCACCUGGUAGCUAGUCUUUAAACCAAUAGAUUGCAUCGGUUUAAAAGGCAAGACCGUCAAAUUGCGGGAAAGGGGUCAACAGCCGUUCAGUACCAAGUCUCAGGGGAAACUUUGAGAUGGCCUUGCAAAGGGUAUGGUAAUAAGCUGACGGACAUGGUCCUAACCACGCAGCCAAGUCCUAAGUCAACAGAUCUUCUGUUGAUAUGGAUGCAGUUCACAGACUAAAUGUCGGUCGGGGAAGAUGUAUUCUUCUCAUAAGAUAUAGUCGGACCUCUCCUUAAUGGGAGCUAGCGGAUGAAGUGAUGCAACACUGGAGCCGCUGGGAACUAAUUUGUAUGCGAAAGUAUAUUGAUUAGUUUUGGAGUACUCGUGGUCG
- measurement context: 37 °C
Kindly return rule met if reported self-splicing fitness (ln) is no lower than -2; return rule not met if it is lower.

The examples below pair each entry with its known result.
Could you verify whether the entry "ACGGAGCAAUAUUACGAAAU" shows self-splicing fitness (ln) of no less than -2?
rule met

Moving on to "CCGCAGCAAUAUUACGUGAA"
rule met

Moving on to "AAUUAGCAAUAUUACGACAC"
rule met

---
Could you verify whether the entry "AUCUAGCAAUAUUACGGAUG" shows self-splicing fitness (ln) of no less than -2?
rule met

Moving on to "CAAAAGCAAUAUUACGGGGG"
rule not met

Moving on to "CUUUAGCAAUAUUACGAUUC"
rule not met

Moving on to "AAUGAGCAAUAUUACGACUC"
rule met

Moving on to "CAUAAGCAAUAUUACGCGGA"
rule met

Moving on to "UCCGAGCAAUAUUACGCGGC"
rule not met

====

- experimental protocol: self-splicing fitness, log relative to wild type (ln ratio); higher = more splicing; Tetrahymena group I intron in knt gene, E. coli kanamycin selection, DiMSum; sequences stand for … in CUCUCU…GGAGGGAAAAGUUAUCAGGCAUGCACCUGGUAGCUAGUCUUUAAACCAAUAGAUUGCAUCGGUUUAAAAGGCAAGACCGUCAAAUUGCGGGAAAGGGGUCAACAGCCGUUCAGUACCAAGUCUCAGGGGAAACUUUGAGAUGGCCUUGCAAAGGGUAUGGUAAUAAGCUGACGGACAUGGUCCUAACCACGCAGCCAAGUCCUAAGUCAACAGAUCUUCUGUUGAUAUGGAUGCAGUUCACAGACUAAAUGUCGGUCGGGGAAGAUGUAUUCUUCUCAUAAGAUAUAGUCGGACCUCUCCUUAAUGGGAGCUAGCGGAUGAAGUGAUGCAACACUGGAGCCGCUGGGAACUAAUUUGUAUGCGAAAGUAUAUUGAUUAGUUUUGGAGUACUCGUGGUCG
- measurement context: 30 °C
quantity measured: self-splicing fitness (ln)
Quick one: just the number, no unit, thanks!

Solved entries (count: 5):
What measured self-splicing fitness (ln) goes with "CCCCAGCAAUAUUACGUGCC" ?
-4.13

Moving on to "GGGAAGCAAUAUUACGAGGU"
-2.81

Moving on to "AAGCAGCAAUAUUACGUUAA"
-1.76

Moving on to "CCAAAGCAAUAUUACGCUAC"
-2.17

Moving on to "UGCAAGCAAUAUUACGUAGC"
-3.54

---
What measured self-splicing fitness (ln) goes with "GCCUAGCAAUAUUACGGCAA" ?
-2.64

Moving on to "UUGAAGCAAUAUUACGAGUA"
-1.83

Moving on to "GCUCAGCAAUAUUACGCGUU"
-0.447

Moving on to "AUUCAGCAAUAUUACGGCCC"
-0.851

Moving on to "ACGGAGCAAUAUUACGCACG"
-3.77

====

Reported self-splicing fitness (ln) is given for each of the following sequences.
- experimental protocol: self-splicing fitness, log relative to wild type (ln ratio); higher = more splicing; Tetrahymena group I intron in knt gene, E. coli kanamycin selection, DiMSum; sequences stand for … in CUCUCU…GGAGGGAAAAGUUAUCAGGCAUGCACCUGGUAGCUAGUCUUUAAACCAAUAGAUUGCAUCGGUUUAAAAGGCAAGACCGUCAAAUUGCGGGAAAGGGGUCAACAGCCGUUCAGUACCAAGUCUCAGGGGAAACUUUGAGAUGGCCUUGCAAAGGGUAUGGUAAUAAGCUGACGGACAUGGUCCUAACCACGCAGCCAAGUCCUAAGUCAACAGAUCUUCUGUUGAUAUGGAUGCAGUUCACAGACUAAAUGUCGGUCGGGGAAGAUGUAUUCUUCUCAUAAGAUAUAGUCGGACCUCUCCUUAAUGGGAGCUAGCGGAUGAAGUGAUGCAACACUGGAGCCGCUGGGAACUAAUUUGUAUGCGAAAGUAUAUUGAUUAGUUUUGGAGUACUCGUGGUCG
- measurement context: 37 °C
Quick one: just the number, no unit, thanks!

What measured self-splicing fitness (ln) goes with "UCUCAGCAAUAUUACGCUGG" ?
-2.67

Moving on to "ACGAAGCAAUAUUACGGGGA"
-1.57

Moving on to "GUGGAGCAAUAUUACGUGCU"
-3.09

Moving on to "GUAGAGCAAUAUUACGGGAA"
-2.35

Moving on to "ACAUAGCAAUAUUACGUCAC"
-2.93

Moving on to "CUAAAGCAAUAUUACGCUGU"
-2.39

Moving on to "UUGCAGCAAUAUUACGUCAA"
-0.523

Moving on to "CCGCAGCAAUAUUACGCCAG"
-0.22

Moving on to "UAUAAGCAAUAUUACGACAA"
-0.202

Moving on to "GGUUAGCAAUAUUACGUCUA"
-0.565

---
What measured self-splicing fitness (ln) goes with "GAAUAGCAAUAUUACGCGAC" ?
0.34

Moving on to "CCUCAGCAAUAUUACGAUGU"
-1.3
